- Target Or Test System: UniProt:P21397
- Sequence (P21397 1-527): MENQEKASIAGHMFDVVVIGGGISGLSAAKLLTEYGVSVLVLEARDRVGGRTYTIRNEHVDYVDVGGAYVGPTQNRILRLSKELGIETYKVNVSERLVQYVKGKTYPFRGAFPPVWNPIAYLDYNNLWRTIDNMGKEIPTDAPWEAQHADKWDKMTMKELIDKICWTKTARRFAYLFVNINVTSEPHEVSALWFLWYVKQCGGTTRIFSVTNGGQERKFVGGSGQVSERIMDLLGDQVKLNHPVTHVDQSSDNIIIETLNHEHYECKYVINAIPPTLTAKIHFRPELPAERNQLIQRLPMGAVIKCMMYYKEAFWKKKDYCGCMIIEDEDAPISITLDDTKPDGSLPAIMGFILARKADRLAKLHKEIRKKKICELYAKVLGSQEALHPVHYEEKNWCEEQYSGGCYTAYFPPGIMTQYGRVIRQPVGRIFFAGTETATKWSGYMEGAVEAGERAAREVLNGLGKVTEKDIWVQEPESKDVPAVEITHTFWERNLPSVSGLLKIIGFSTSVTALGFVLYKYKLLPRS
For each entry below, report its IC50 value.

# input compound: "O=C(CSC(=S)N1CCN(c2ccc(F)cc2)CC1)N1CCN(c2ncccn2)CC1" ; wanted: its IC50 > 0.1 mM

# input compound: "O=C(CSC(=S)N1CCN(c2ccc([N+](=O)[O-])cc2)CC1)N1CCN(c2ncccn2)CC1" ; wanted: its IC50 0.0231 mM

# input compound: "CCN1CCN(C(=S)SCC(=O)N2CCN(c3ncccn3)CC2)CC1" ; wanted: its IC50 > 1 mM

# input compound: "O=C(CSC(=S)N1CCN(C2CCCCC2)CC1)N1CCN(c2ncccn2)CC1" ; wanted: its IC50 > 1 mM

# input compound: "CN(C)CCN1CCN(C(=S)SCC(=O)N2CCN(c3ncccn3)CC2)CC1" ; wanted: its IC50 > 1 mM

# input compound: "O=C(CSC(=S)N1CCN(c2ccc(Cl)cc2)CC1)N1CCN(c2ncccn2)CC1" ; wanted: its IC50 > 1 mM

# input compound: "CN1CCN(C(=S)SCC(=O)N2CCN(c3ncccn3)CC2)CC1" ; wanted: its IC50 > 1 mM

# input compound: "O=C(CSC(=S)N1CCN(CCO)CC1)N1CCN(c2ncccn2)CC1" ; wanted: its IC50 > 1 mM

# input compound: "O=C(CSC(=S)N1CCN(c2ccccc2)CC1)N1CCN(c2ncccn2)CC1" ; wanted: its IC50 > 1 mM

# input compound: "Cc1ccc(CN2CCN(C(=S)SCC(=O)N3CCN(c4ncccn4)CC3)CC2)cc1" ; wanted: its IC50 > 1 mM

# input compound: "O=C(CSC(=S)N1CCN(c2ncccn2)CC1)N1CCN(c2ncccn2)CC1" ; wanted: its IC50 > 1 mM

# input compound: "Cc1ccc(N2CCN(C(=S)SCC(=O)N3CCN(c4ncccn4)CC3)CC2)cc1" ; wanted: its IC50 > 1 mM

----------
- Target Or Test System: MAO-A enzyme (Homo sapiens)
- Construct: purchased Sigma-Aldrich Chemicals (St. Louis, MO)
- Test Protocol: MAO activity assay, fluorimetric, kynuramine substrate (MAO-A)
- Type: biochemical
- Run Parameters: 10^−4 M
Measured Attribute: MAO-A inhibition %

# input compound: "O=C(CSC(=S)N1CCN(c2ccccc2)CC1)N1CCN(c2ncccn2)CC1" ; wanted: its MAO-A inhibition % 31.25 ± 0.88%

# input compound: "O=C(CSC(=S)N1CCN(Cc2ccccc2)CC1)N1CCN(c2ncccn2)CC1" ; wanted: its MAO-A inhibition % 6.15 ± 0.18%

# input compound: "Cc1ccc(CN2CCN(C(=S)SCC(=O)N3CCN(c4ncccn4)CC3)CC2)cc1" ; wanted: its MAO-A inhibition % 15.38 ± 0.61%

# input compound: "O=C(CSC(=S)N1CCN(c2ccc(F)cc2)CC1)N1CCN(c2ncccn2)CC1" ; wanted: its MAO-A inhibition % 39.58 ± 0.95%

----------
- Target Or Test System: human recombinant MAO-B (Homo sapiens, UniProt P27338)
- Construct: purchased Sigma-Aldrich Chemicals (St. Louis, MO)
- Sequence (P27338 1-520): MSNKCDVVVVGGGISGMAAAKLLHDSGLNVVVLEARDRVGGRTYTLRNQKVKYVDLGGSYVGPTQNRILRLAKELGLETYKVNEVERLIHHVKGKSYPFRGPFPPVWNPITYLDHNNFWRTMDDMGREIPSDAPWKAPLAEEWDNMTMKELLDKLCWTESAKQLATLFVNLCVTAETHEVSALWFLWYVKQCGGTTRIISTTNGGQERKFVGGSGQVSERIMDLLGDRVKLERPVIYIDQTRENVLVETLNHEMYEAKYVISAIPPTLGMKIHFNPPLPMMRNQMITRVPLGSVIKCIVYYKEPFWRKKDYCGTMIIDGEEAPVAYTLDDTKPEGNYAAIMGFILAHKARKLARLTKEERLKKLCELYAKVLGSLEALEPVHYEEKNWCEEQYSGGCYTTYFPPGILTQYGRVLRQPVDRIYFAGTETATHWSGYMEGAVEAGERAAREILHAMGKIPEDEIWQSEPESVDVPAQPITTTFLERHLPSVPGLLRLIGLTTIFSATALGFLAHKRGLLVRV
- Test Protocol: MAO activity assay, fluorimetric, kynuramine substrate (MAO-B)
- Assay type: biochemical
- Run Parameters: 10^−4 M
Lab note: compare MAO B inhibition % against 10%. Equal or greater, write 1 (yes). Smaller, write 0 (no).

I'd appreciate it if you could say whether "O=C(CSC(=S)N1CCN(C(c2ccccc2)c2ccccc2)CC1)N1CCN(c2ncccn2)CC1" has MAO B inhibition % at least equal to 10%. 1 (yes)

I'd appreciate it if you could say whether "O=C(CSC(=S)N1CCN(c2ncccn2)CC1)N1CCN(c2ncccn2)CC1" has MAO B inhibition % at least equal to 10%. 1 (yes)

I'd appreciate it if you could say whether "CCN1CCN(C(=S)SCC(=O)N2CCN(c3ncccn3)CC2)CC1" has MAO B inhibition % at least equal to 10%. 0 (no)

I'd appreciate it if you could say whether "Cc1ccc(N2CCN(C(=S)SCC(=O)N3CCN(c4ncccn4)CC3)CC2)cc1" has MAO B inhibition % at least equal to 10%. 1 (yes)

I'd appreciate it if you could say whether "CN(C)CCN1CCN(C(=S)SCC(=O)N2CCN(c3ncccn3)CC2)CC1" has MAO B inhibition % at least equal to 10%. 0 (no)

I'd appreciate it if you could say whether "O=C(CSC(=S)N1CCN(c2ccccc2)CC1)N1CCN(c2ncccn2)CC1" has MAO B inhibition % at least equal to 10%. 1 (yes)

I'd appreciate it if you could say whether "O=C(CSC(=S)N1CCN(c2ccc(Cl)cc2)CC1)N1CCN(c2ncccn2)CC1" has MAO B inhibition % at least equal to 10%. 1 (yes)

I'd appreciate it if you could say whether "O=C(CSC(=S)N1CCN(C2CCCCC2)CC1)N1CCN(c2ncccn2)CC1" has MAO B inhibition % at least equal to 10%. 0 (no)

I'd appreciate it if you could say whether "Cc1ccc(CN2CCN(C(=S)SCC(=O)N3CCN(c4ncccn4)CC3)CC2)cc1" has MAO B inhibition % at least equal to 10%. 1 (yes)

I'd appreciate it if you could say whether "O=C(CSC(=S)N1CCN(c2ccc(F)cc2)CC1)N1CCN(c2ncccn2)CC1" has MAO B inhibition % at least equal to 10%. 1 (yes)

I'd appreciate it if you could say whether "CN1CCN(C(=S)SCC(=O)N2CCN(c3ncccn3)CC2)CC1" has MAO B inhibition % at least equal to 10%. 0 (no)

I'd appreciate it if you could say whether "O=C(CSC(=S)N1CCN(CCO)CC1)N1CCN(c2ncccn2)CC1" has MAO B inhibition % at least equal to 10%. 0 (no)

I'd appreciate it if you could say whether "O=C(CSC(=S)N1CCN(Cc2ccccc2)CC1)N1CCN(c2ncccn2)CC1" has MAO B inhibition % at least equal to 10%. 0 (no)

I'd appreciate it if you could say whether "O=C(CSC(=S)N1CCN(c2ccc([N+](=O)[O-])cc2)CC1)N1CCN(c2ncccn2)CC1" has MAO B inhibition % at least equal to 10%. 1 (yes)

----------
- Target Or Test System: human recombinant MAO-B (Homo sapiens)
- Test Protocol: MAO activity assay, fluorimetric, kynuramine substrate (MAO-B)
For each entry below, report its IC50 value.

# input compound: "O=C(CSC(=S)N1CCN(C(c2ccccc2)c2ccccc2)CC1)N1CCN(c2ncccn2)CC1" ; wanted: its IC50 > 100 µM

# input compound: "Cc1ccc(N2CCN(C(=S)SCC(=O)N3CCN(c4ncccn4)CC3)CC2)cc1" ; wanted: its IC50 > 1000 µM

# input compound: "O=C(CSC(=S)N1CCN(c2ccc(F)cc2)CC1)N1CCN(c2ncccn2)CC1" ; wanted: its IC50 > 1000 µM

# input compound: "O=C(CSC(=S)N1CCN(c2ccc(Cl)cc2)CC1)N1CCN(c2ncccn2)CC1" ; wanted: its IC50 > 1000 µM

# input compound: "O=C(CSC(=S)N1CCN(c2ccc([N+](=O)[O-])cc2)CC1)N1CCN(c2ncccn2)CC1" ; wanted: its IC50 > 100 µM

# input compound: "CN1CCN(C(=S)SCC(=O)N2CCN(c3ncccn3)CC2)CC1" ; wanted: its IC50 > 1000 µM

# input compound: "O=C(CSC(=S)N1CCN(CCO)CC1)N1CCN(c2ncccn2)CC1" ; wanted: its IC50 > 1000 µM

# input compound: "O=C(CSC(=S)N1CCN(c2ccccc2)CC1)N1CCN(c2ncccn2)CC1" ; wanted: its IC50 > 100 µM

Every entry's value here was drawn from paper PMC6009961.
